# Method notes: Cytotoxicity against human HCT116 cells assessed as growth inhibition after 72 hrs by MTT assay
# Type: functional, cell-based
# Condition notes: HCT-116, 72 h
The entries below are paired with their reported log10 IC50.
Please interpret these as log10 of IC50 where IC50 is in µM.

Consider the worked cases shown below.
COc1cc2cc(NC(=O)/C=C/c3ccc(Cl)cc3)c(=O)oc2cc1O: -0.16
COc1ccc(/C=C/C(=O)Nc2cc3cc(OC)c(O)cc3oc2=O)cc1: -0.30
COc1cc2cc(NC(=O)/C=C/c3ccccc3)c(=O)oc2cc1O: 0.06
COc1cccc2c1C(=O)c1c(O)c3c(c(O)c1C2=O)C[C@@](O)(C(=O)CO)C[C@@H]3O[C@H]1C[C@H](N)[C@H](O)[C@H](C)O1 [DOXORUBICIN]: -0.32

Next, consider the following compound.
q: Supply reported log10 IC50 belonging to this compound: COc1cc2cc(NC(=O)/C=C/c3ccc(F)cc3)c(=O)oc2cc1O
a: 0.74
